assay: Agonist activity at human GABAC rho 1 receptor expressed in HEK293 cells by FMP assay; type: functional, cell-based; conditions: hek293
Measurement name: pKi
// returns pKi (minus log10 of molar concentration), number only

pKi for CP(=O)(O)C1=CCNCC1 is 5.89
